assay: In vitro permeability, Franz diffusion cell, regenerated cellulose membrane; format: in vitro ADME; settings: pH 6.8, RC membrane; pure buffer pH 6.8 (0 mmol·L^−1 excipient); 37 °C; read-out: Papp (apparent permeability coefficient)

>  <compound>
NC(=O)N1c2ccccc2C=Cc2ccccc21 [CBZ, carbamazepine]

>  <resultUnits>
×10⁻⁶ cm/s

>  <Papp at 5 h>
55.5

$$$$

====

assay: In vitro permeability, Franz diffusion cell, polydimethylsiloxane–polycarbonate membrane; type: in vitro ADME; settings: pH 6.8, PDS membrane; F127 2.30 mmol·L^−1; buffer pH 6.8; 37 °C; read-out: Papp (apparent permeability coefficient)

>  <molecule>
NC(=O)N1c2ccccc2C=Cc2ccccc21 [CBZ, carbamazepine]

>  <Papp at 5 h, ×10⁻⁶ cm/s>
0.214

$$$$

====

experiment: In vitro permeability, Franz diffusion cell, regenerated cellulose membrane; format: in vitro ADME; conditions: pH 6.8, RC membrane; F127 1.33 mmol·L^−1; buffer pH 6.8; 37 °C; read-out: Papp (apparent permeability coefficient)
endpoint: Papp at 5 h (×10⁻⁶ cm/s)

>  <molecule>
NC(=O)N1c2ccccc2C=Cc2ccccc21 [CBZ, carbamazepine]

>  <number>
32.2

$$$$

====

assay: In vitro permeability, Franz diffusion cell, regenerated cellulose membrane; assay type: in vitro ADME; conditions: pH 6.8, RC membrane; pure buffer pH 6.8 (0 mmol·L^−1 excipient); 37 °C; read-out: Pabs (absolute permeability coefficient, Pabs=J/C0free)

>  <compound>
NC(=O)N1c2ccccc2C=Cc2ccccc21 [CBZ, carbamazepine]

>  <resultUnits>
×10⁻⁶ cm/s

>  <Papp at 5 h>
55.5

$$$$

====

Test: In vitro permeability, Franz diffusion cell, polydimethylsiloxane–polycarbonate membrane
Format: in vitro ADME
Details: pH 6.8, PDS membrane; F127 1.33 mmol·L^−1; buffer pH 6.8; 37 °C; read-out: Papp (apparent permeability coefficient)
Method: The apparent permeability coefficients were measured at 37 °C with the help of a vertical-type Franz diffusion cell (PermeGear, Inc., Hellertown, PA, USA). The experimental setup was the same as it was described in our previous study, where the excess amount of the investigated substance was placed in glass cups with ground-in lids. […] The concentration of this solution was determined and used for the further calculation of the permeability coefficient. […]
endpoint: Papp at 5 h (×10⁻⁶ cm/s)

>  <compound>
NC(=O)N1c2ccccc2C=Cc2ccccc21 [CBZ, carbamazepine]

>  <number>
0.286

$$$$

====

test: In vitro permeability, Franz diffusion cell, regenerated cellulose membrane; assay type: in vitro ADME; conditions: pH 6.8, RC membrane; SBE-β-CD 20.67 mmol·L^−1; buffer pH 6.8; 37 °C; read-out: Papp (apparent permeability coefficient)

>  <molecule>
NC(=O)N1c2ccccc2C=Cc2ccccc21 [CBZ, carbamazepine]

>  <resultUnits>
×10⁻⁶ cm/s

>  <Papp at 5 h>
12.4

$$$$

====

experiment: In vitro permeability, Franz diffusion cell, regenerated cellulose membrane; assay type: in vitro ADME; conditions: pH 6.8, RC membrane; F127 1.83 mmol·L^−1; buffer pH 6.8; 37 °C; read-out: Papp (apparent permeability coefficient)
endpoint: Papp at 5 h (×10⁻⁶ cm/s)

>  <compound>
NC(=O)N1c2ccccc2C=Cc2ccccc21 [CBZ, carbamazepine]

>  <endpoint>
Papp at 5 h

>  <number>
26.6

$$$$

====

test: In vitro permeability, Franz diffusion cell, regenerated cellulose membrane; type: in vitro ADME; details: pH 6.8, RC membrane; SBE-β-CD 6.89 mmol·L^−1; buffer pH 6.8; 37 °C; read-out: Papp (apparent permeability coefficient)

>  <compound>
NC(=O)N1c2ccccc2C=Cc2ccccc21 [CBZ, carbamazepine]

>  <Papp at 5 h, ×10⁻⁶ cm/s>
20.5

$$$$

====

experiment: In vitro permeability, Franz diffusion cell, polydimethylsiloxane–polycarbonate membrane; format: in vitro ADME; settings: pH 6.8, PDS membrane; F127 1.83 mmol·L^−1; buffer pH 6.8; 37 °C; read-out: Papp (apparent permeability coefficient)

>  <compound>
NC(=O)N1c2ccccc2C=Cc2ccccc21 [CBZ, carbamazepine]

>  <Papp at 5 h [×10⁻⁶ cm/s]>
0.253

$$$$

====

assay: In vitro permeability, Franz diffusion cell, polydimethylsiloxane–polycarbonate membrane; type: in vitro ADME; details: pH 6.8, PDS membrane; SBE-β-CD 13.78 mmol·L^−1; buffer pH 6.8; 37 °C; read-out: Papp (apparent permeability coefficient)
endpoint: Papp at 5 h

>  <compound>
NC(=O)N1c2ccccc2C=Cc2ccccc21 [CBZ, carbamazepine]

>  <result>
0.796 nm/s

$$$$

====

experiment: In vitro permeability, Franz diffusion cell, polydimethylsiloxane–polycarbonate membrane; format: in vitro ADME; conditions: pH 6.8, PDS membrane; SBE-β-CD 20.67 mmol·L^−1; buffer pH 6.8; 37 °C; read-out: Papp (apparent permeability coefficient)

>  <molecule>
NC(=O)N1c2ccccc2C=Cc2ccccc21 [CBZ, carbamazepine]

>  <Papp at 5 h / ×10⁻⁶ cm/s>
0.0565

$$$$

====

experiment: logP, partition of CBZ from water to 1-octanol; assay type: physicochemical; conditions: 1-octanol/water, pH 7.4; after conversion from the molar units to the mass units
endpoint: logP

>  <molecule>
NC(=O)N1c2ccccc2C=Cc2ccccc21 [CBZ, carbamazepine]

>  <number>
3.47

$$$$

====

assay: In vitro permeability, Franz diffusion cell, polydimethylsiloxane–polycarbonate membrane; format: in vitro ADME; details: pH 6.8, PDS membrane; pure buffer pH 6.8 (0 mmol·L^−1 excipient); 37 °C; read-out: Papp (apparent permeability coefficient)
endpoint: Papp at 5 h (×10⁻⁶ cm/s)

>  <compound>
NC(=O)N1c2ccccc2C=Cc2ccccc21 [CBZ, carbamazepine]

>  <endpoint>
Papp at 5 h

>  <resultUnits>
×10⁻⁶ cm/s

>  <number>
0.567

$$$$
